test system: DLD-1; test: NCI tumour cell line growth inhibition, 48 h
Activity calls are given as the source filed them. No stated cut-off is given here; in the data, active = GI50 up to about 1.1 µM and inactive = higher.
Labels: active, inactive

- Molecule: "O=C(c1ccccn1)c1nc(-c2ccc(Cl)c(Cl)c2)nc2ccc(Cl)cc12"
  Label: "inactive"
- Molecule: "O=C(Nc1ccc(Cl)cc1)c1cc2cc(/N=N/c3ccccc3Cl)ccc2oc1=O"
  Label: "inactive"
- Molecule: "O=[N+]([O-])c1cccnc1S(=O)(=O)c1ccccc1"
  Label: "inactive"
- Molecule: "O=C(O)Cn1c(=O)[nH]c(=O)c2c1ncn2Cc1ccccc1"
  Label: "inactive"
- Molecule: "COc1cc(/N=N\\c2cccc(S(=O)(=O)O)c2)ccc1/N=N\\c1ccc(/C=C/c2ccc(-n3on3-c3ccc(/C=C/c4ccc(/N=N/c5ccc(/N=N\\c6cccc(S(=O)(=O)O)c6)cc5OC)cc4S(=O)(=O)O)c(S(=O)(=O)O)c3)cc2S(=O)(=O)O)c(S(=O)(=O)O)c1"
  Label: "inactive"
- Molecule: "COc1cc2c(c(OC)c1OC)-c1ccc(OC)c(=O)cc1C(NC(=O)c1ccc(N=[N+]=[N-])cc1)CC2 (stereo not given)"
  Label: "active"
- Molecule: "Nc1nc(N)c(CCCCc2ccc([N+](=O)[O-])cc2)c(N)n1"
  Label: "inactive"
- Molecule: "O=C(c1ccccc1)C1OC12C(=O)Nc1ccccc12 (stereo not given)"
  Label: "inactive"
- Molecule: "COc1ccc(/C=c2/sc3n(c2=O)NC(c2ccc(Cl)cc2)NN=3)cc1 (stereo not given)"
  Label: "inactive"
- Molecule: "Cc1nc(-c2nc(C)c(C(=O)NNC(=O)C[n+]3ccccc3)s2)sc1C(=O)NNC(=O)C[n+]1ccccc1"
  Label: "inactive"
- Molecule: "Cc1cccc2c1N(C(=O)/C=C\\C(=O)O)C(c1c(C)[nH]c3ccccc13)C2 (stereo not given)"
  Label: "inactive"
- Molecule: "Cc1cc(N(CCC#N)S(=O)(=O)c2ccccc2)ccc1/C=C1\\N=C(c2ccc(Cl)cc2)OC1=O"
  Label: "inactive"
- Molecule: "COC(=O)Cc1cc(O)c2c(c1O)C(=O)c1ccccc1C2=O"
  Label: "inactive"
- Molecule: "Cc1ccc(C)c(NC(=O)CCC(=O)CC(=O)C(C)(C)C)c1"
  Label: "inactive"
- Molecule: "O=C(O)Cn1c(=O)[nH]c(=O)c2[nH]cnc21"
  Label: "inactive"
- Molecule: "COC(=O)CSc1ccccc1"
  Label: "inactive"
- Molecule: "Cc1c2ccncc2c(C)c2c1[nH]c1ccc(Cl)cc12"
  Label: "inactive"
- Molecule: "Nc1ncnc2c1ncn2C1CC(OCc2ccccc2[N+](=O)[O-])C(CO)O1 (stereo not given)"
  Label: "inactive"
- Molecule: "COC(=O)N/N=C(\\C)C(CN1CCCCC1)C(C1=C(O)c2ccccc2OC1)c1ccccc1 (stereo not given)"
  Label: "inactive"
- Molecule: "COc1ccc(OC)c2[s+]snc12"
  Label: "inactive"
